Target: T1, C-terminal His6-tagged SAUDG (S. aureus uracil-DNA glycosylase) (S. aureus, UniProt Q6GJ88 1-218)
T1 sequence (looked up): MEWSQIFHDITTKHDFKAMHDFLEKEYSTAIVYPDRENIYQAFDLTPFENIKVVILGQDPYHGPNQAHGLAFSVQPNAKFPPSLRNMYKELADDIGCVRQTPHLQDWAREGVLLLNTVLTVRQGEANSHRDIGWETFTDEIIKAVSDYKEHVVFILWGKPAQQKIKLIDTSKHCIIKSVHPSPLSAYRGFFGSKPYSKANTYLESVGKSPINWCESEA
Experiment: SPR
METRIC: pKd
// scale note: pKd = -log10(conc_M); give the bare number

Ask: Recorded pKd for uracil-DNA glycosylase inhibitor from phage PBS2 (UGI) (natural protein) MTNLSDIIEKETGKQLVIQESILMLPEEVEEVIGNKPESDILVHTAYDESTDENVMLLTSDAPEYKPWALVIQDSNGENKIKML , please?
Result: 9.16
